Counter-ions that a name gives are not always drawn.
Record type: GI50 measurement. Applies to: CTLL-2 cells
Please reply with the bare figure in nM and do not write the unit itself.

{"molecule": "C=CC(=O)N(C)c1cc(Nc2ncc(Cl)c(NCCCNC(=O)c3ccc(F)cc3)n2)ccc1F", "GI50 [nM]": 140}
{"molecule": "C=CC(=O)N(C)c1cc(Nc2ncc(Cl)c(NCCCNC(=O)c3ccc(C#N)cc3)n2)ccc1F", "GI50 [nM]": 116}
{"molecule": "C[C@@H]1CCN(C(=O)CC#N)C[C@@H]1N(C)c1ncnc2[nH]ccc12 [Xeljanz, tofacitinib citrate, reference compound]", "GI50 [nM]": 67}

Need GI50, item C=CC(=O)N(C)c1cc(Nc2ncc(Cl)c(NCCCNC(=O)c3ccc(C(F)(F)F)cc3)n2)ccc1F 249
